Reference source for all entries: BigSolDB 2.1

conditions: in ethanol, 301.55 K
property_measured: solubility (mole fraction)
Numbers only.

// sample "C[C@@H](O[C@H]1OCCN(Cc2n[nH]c(=O)[nH]2)[C@H]1c1ccc(F)cc1)c1cc(C(F)(F)F)cc(C(F)(F)F)c1" , its solubility (mole fraction) was 0.00279

###

details: in acetone, 299.85 K
property_measured: solubility (mole fraction)
One number for each entry.

// sample "C[C@@H](O[C@H]1OCCN(Cc2n[nH]c(=O)[nH]2)[C@H]1c1ccc(F)cc1)c1cc(C(F)(F)F)cc(C(F)(F)F)c1" , its solubility (mole fraction) was 0.00719

###

settings: in ethanol, 303.85 K
property_measured: solubility (mole fraction)
Answers are plain numbers.

// sample "C[C@@H](O[C@H]1OCCN(Cc2n[nH]c(=O)[nH]2)[C@H]1c1ccc(F)cc1)c1cc(C(F)(F)F)cc(C(F)(F)F)c1" , its solubility (mole fraction) was 0.00294

###

settings: in n-butanol, 306.35 K
property_measured: solubility (mole fraction)
Answers are plain numbers.

// sample "C[C@@H](O[C@H]1OCCN(Cc2n[nH]c(=O)[nH]2)[C@H]1c1ccc(F)cc1)c1cc(C(F)(F)F)cc(C(F)(F)F)c1" , its solubility (mole fraction) was 0.00235

###

settings: in n-propanol, 318.35 K
property_measured: solubility (mole fraction)
Answers are plain numbers.

// sample "C[C@@H](O[C@H]1OCCN(Cc2n[nH]c(=O)[nH]2)[C@H]1c1ccc(F)cc1)c1cc(C(F)(F)F)cc(C(F)(F)F)c1" , its solubility (mole fraction) was 0.0037

###

conditions: in acetonitrile, 320.85 K
property_measured: solubility (mole fraction)

// sample "C[C@@H](O[C@H]1OCCN(Cc2n[nH]c(=O)[nH]2)[C@H]1c1ccc(F)cc1)c1cc(C(F)(F)F)cc(C(F)(F)F)c1" , its solubility (mole fraction) was 0.00067

###

conditions: in n-butanol, 303.75 K
property_measured: solubility (mole fraction)
Give bare numbers.

// sample "C[C@@H](O[C@H]1OCCN(Cc2n[nH]c(=O)[nH]2)[C@H]1c1ccc(F)cc1)c1cc(C(F)(F)F)cc(C(F)(F)F)c1" , its solubility (mole fraction) was 0.00219

###

conditions: in acetone, 313.85 K
property_measured: solubility (mole fraction)
Give bare numbers.

// sample "C[C@@H](O[C@H]1OCCN(Cc2n[nH]c(=O)[nH]2)[C@H]1c1ccc(F)cc1)c1cc(C(F)(F)F)cc(C(F)(F)F)c1" , its solubility (mole fraction) was 0.00955

###

settings: in acetonitrile, 306.55 K
property_measured: solubility (mole fraction)
One number for each entry.

// sample "C[C@@H](O[C@H]1OCCN(Cc2n[nH]c(=O)[nH]2)[C@H]1c1ccc(F)cc1)c1cc(C(F)(F)F)cc(C(F)(F)F)c1" , its solubility (mole fraction) was 0.000398

###

details: in ethanol, 295.95 K
property_measured: solubility (mole fraction)
Numbers only.

// sample "C[C@@H](O[C@H]1OCCN(Cc2n[nH]c(=O)[nH]2)[C@H]1c1ccc(F)cc1)c1cc(C(F)(F)F)cc(C(F)(F)F)c1" , its solubility (mole fraction) was 0.0024

###

conditions: in n-butanol, 293.25 K
property_measured: solubility (mole fraction)
Answers are plain numbers.

// sample "C[C@@H](O[C@H]1OCCN(Cc2n[nH]c(=O)[nH]2)[C@H]1c1ccc(F)cc1)c1cc(C(F)(F)F)cc(C(F)(F)F)c1" , its solubility (mole fraction) was 0.00154
